meta.source: patent US7687514B2

- Measurement Protocol: Pharmacokinetics test (plasma concentration after oral or intravenous administration)
- Type: in vivo
- Stated Conditions: rat, male SD rats, read-out: half-life in the blood (converted)
Property Measured: half-life
Give the number first and the unit second.

Ask: Look up half-life for this molecule: O=C1OC2(CCC(c3nc4cnc(-c5ccccc5)nc4[nH]3)CC2)c2ccccc21 (stereo not shown)
Result: 3 h

* * *

- Measurement Protocol: Pharmacokinetics test (plasma concentration after oral or intravenous administration)
- Type: in vivo
- Stated Conditions: rat, male SD rats, oral or intravenous administration
Property Measured: bioavailability (%)
Field: numeric (%). Do not append units.

Ask: Look up bioavailability for this compound: O=C1OC2(CCC(c3nc4cnc(-c5ccccc5)nc4[nH]3)CC2)c2ccccc21 (stereo not shown) [Example 6]
Result: 78
